# System: Escherichia coli TOP10;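 note: peptides expressed intracellularly from a pBAD plasmid library in pooled LB shake-flask culture, induced with 0.3% L-arabinose, DNA abundance read by NGS, three biological replicates, DESeq2 with apeglm shrinkage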
# Measurement protocol: shrunken log2 fold change of peptide-encoding DNA abundance (4.5 h post-induction vs induction); higher = less antimicrobial activity (less host growth inhibition)
# Assay setup: time post-induction: 4.5 h; library: site-saturation at positions 5, 18, 19, 20
Property: shrunken log2 fold change

The examples below pair each entry with its known result.
| Residue codes | Test target | Reported value |
| --- | --- | --- |
| RRIRERPPRLPRPRPRPERLPRP | Escherichia coli TOP10 | 0.171 |
| RRIRTRPPRLPRPRPRPCGWPRP | Escherichia coli TOP10 | 0.0147 |

Just so you know, measured shrunken log2 fold change for RRIRMRPPRLPRPRPRPKELPRP came out at 0.642

Just so you know, measured shrunken log2 fold change for RRIRHRPPRLPRPRPRPRGCPRP came out at 0.387

Just so you know, measured shrunken log2 fold change for RRIRWRPPRLPRPRPRPIMPPRP came out at -0.0977

Just so you know, measured shrunken log2 fold change for RRIRKRPPRLPRPRPRPKMVPRP came out at -0.031

Just so you know, measured shrunken log2 fold change for RRIRCRPPRLPRPRPRPSEWPRP came out at -0.214

Just so you know, measured shrunken log2 fold change for RRIRVRPPRLPRPRPRPTWKPRP came out at -0.0442
